- Target entity: T1, human Jagged1 (human, UniProt P78504 34-1218)
- T1 construct: whole, on cells
- T1 sequence (P78504 34-1218): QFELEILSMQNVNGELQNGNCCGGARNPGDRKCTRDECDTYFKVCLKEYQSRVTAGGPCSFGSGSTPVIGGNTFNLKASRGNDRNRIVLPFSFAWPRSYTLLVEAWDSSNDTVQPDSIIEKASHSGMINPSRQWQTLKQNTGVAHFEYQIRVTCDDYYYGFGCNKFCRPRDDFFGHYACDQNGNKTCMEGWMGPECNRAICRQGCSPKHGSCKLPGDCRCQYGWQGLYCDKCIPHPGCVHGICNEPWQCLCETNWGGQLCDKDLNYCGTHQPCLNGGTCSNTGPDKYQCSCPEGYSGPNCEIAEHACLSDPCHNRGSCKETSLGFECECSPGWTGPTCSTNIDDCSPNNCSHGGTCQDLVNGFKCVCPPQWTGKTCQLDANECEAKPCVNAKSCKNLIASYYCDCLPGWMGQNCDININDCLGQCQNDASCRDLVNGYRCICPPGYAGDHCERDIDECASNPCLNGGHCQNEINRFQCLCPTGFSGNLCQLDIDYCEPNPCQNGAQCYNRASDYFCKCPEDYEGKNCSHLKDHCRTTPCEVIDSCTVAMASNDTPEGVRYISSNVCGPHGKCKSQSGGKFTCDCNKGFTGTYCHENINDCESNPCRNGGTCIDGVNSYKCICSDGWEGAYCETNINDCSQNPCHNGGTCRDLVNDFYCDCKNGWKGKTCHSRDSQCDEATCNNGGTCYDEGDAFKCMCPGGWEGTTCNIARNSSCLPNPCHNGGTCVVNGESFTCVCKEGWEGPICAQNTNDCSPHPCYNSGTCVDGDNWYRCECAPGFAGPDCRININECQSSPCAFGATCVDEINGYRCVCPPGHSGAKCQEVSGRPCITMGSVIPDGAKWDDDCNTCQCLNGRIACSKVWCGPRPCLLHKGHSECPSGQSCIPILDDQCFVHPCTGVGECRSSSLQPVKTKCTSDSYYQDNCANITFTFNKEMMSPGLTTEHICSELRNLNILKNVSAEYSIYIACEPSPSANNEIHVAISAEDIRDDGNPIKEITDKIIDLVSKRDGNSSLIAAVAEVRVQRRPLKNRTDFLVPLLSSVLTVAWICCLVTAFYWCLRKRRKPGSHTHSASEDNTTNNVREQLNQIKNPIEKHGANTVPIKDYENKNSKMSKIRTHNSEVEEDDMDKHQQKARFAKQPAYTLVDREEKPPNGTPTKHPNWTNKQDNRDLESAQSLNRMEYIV
- Test description: FMAT, hybridoma supernatant, 293T cells with human Jagged1
Attribute: Count

Reference set, count: 2
- Binder: "2H10 (antibody, IgG4, V domains shown, Fully human; used for IgG4 rows and where no isotype is printed; also called 2H10 IgG4) VH: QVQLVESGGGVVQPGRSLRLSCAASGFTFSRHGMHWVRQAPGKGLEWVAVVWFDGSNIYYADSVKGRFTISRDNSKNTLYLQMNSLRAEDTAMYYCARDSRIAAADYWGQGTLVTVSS VL: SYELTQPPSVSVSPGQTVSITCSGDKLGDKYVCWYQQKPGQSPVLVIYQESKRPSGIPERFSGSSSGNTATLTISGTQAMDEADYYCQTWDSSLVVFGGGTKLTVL"
  Count: 5
- Binder: "17F3 (antibody, IgG2, V domains shown, Fully human; also used where no isotype is printed) VH: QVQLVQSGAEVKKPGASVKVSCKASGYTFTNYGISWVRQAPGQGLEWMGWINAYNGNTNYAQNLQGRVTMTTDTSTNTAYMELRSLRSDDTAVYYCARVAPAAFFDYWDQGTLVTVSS VL: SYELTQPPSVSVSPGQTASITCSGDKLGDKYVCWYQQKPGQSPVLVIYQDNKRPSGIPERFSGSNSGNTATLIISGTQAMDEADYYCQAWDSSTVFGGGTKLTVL"
  Count: 30

Now examine the next entry.
Look at this binder and give its reported Count. 1D4 (antibody, IgG4, V domains shown, Fully human XenoMouse antibody; also used where no isotype is printed) VH: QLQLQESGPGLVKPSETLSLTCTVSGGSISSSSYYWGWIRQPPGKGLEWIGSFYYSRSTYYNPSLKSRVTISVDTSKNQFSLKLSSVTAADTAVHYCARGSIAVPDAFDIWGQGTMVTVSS VL: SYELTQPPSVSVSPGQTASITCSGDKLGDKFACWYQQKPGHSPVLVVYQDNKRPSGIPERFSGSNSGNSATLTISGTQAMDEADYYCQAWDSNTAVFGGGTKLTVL
23
